- System: 253994-281-T-J1-PDC KRAS-mutant spheroids with HUVEC/MSC, viability;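 also: spheroids exposed to agents for seven days before readout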
- assaySummary: Anticancer human tumor 253994-281-T-J1-PDC patient-derived colorectal carcinoma cell line growth inhibition [KRAS2]
- conditionNotes: second compound 0.1 µM; first compound 0.1 µM; hits give low values
Labelling field: enter Fulfilled if recorded viability, T/C is less than 90%. Enter Not fulfilled if it equals or exceeds that cut-off.

Previously resolved entries follow.
compound	measurementTarget	classification
CC(C)NCC(C(=O)N1CCN(c2ncnc3c2C(C)CC3O)CC1)c1ccc(Cl)cc1 (stereo not given) + CNCc1ccccc1-c1csc(C(C)Nc2nc(C)nc3cc(OC)c(OC)cc23)c1	253994-281-T-J1-PDC KRAS-mutant spheroids with HUVEC/MSC, viability	Not fulfilled
Cn1nccc1Nc1nccc(-c2cc3c(s2)C(C)(C)N(CCN2CCOCC2)C3=O)n1 + CNCc1ccccc1-c1csc(C(C)Nc2nc(C)nc3cc(OC)c(OC)cc23)c1	253994-281-T-J1-PDC KRAS-mutant spheroids with HUVEC/MSC, viability	Not fulfilled
Cn1ncnc1[C@H]1c2n[nH]c(=O)c3cc(F)cc(c23)N[C@@H]1c1ccc(F)cc1 + C=CC(=O)N1CCN(c2nc(OCC3CCCN3C)nc3c2CCN(c2cccc4cccc(C)c24)C3)CC1CC#N	253994-281-T-J1-PDC KRAS-mutant spheroids with HUVEC/MSC, viability	Not fulfilled

Req: Does this compound meet the criterion viability, T/C < 90%? CC(=O)OC12COC1CC(O)C1(C)C(=O)C(O)C3=C(C)C(OC(=O)C(O)C(NC(=O)OC(C)(C)C)c4ccccc4)CC(O)(C(OC(=O)c4ccccc4)C21)C3(C)C (stereo not given) + C=CC(=O)N1CCN(c2nc(=O)n(-c3c(C)ccnc3C(C)C)c3nc(-c4c(O)cccc4F)c(F)cc23)C(C)C1
Resp: Fulfilled

Req: Does this compound meet the criterion viability, T/C < 90%? O=C(c1cc(Cc2n[nH]c(=O)c3ccccc23)ccc1F)N1CCN(C(=O)C2CC2)CC1 + CC1OCC2(CCN(c3cnc(Sc4ccnc(N)c4Cl)c(N)n3)CC2)C1N
Resp: Fulfilled

Req: Does this compound meet the criterion viability, T/C < 90%? COc1cc2nccc(Oc3ccc(NC(=O)C4(C(=O)Nc5ccc(F)cc5)CC4)cc3)c2cc1OC + C=CC(=O)N1CCN(c2nc(=O)n(-c3c(C)ccnc3C(C)C)c3nc(-c4c(O)cccc4F)c(F)cc23)C(C)C1
Resp: Not fulfilled

Req: Does this compound meet the criterion viability, T/C < 90%? COc1cc(Nc2ncc3c(n2)-c2ccc(Cl)cc2C(c2c(F)cccc2OC)=NC3)ccc1C(=O)O + COc1cc2nc(C)nc(NC(C)c3cc(N)cc(C(F)(F)F)c3)c2cc1OC1CCOC1
Resp: Fulfilled

Req: Does this compound meet the criterion viability, T/C < 90%? CN(C)C/C=C/C(=O)Nc1cc2c(Nc3ccc(F)c(Cl)c3)ncnc2cc1O[C@H]1CCOC1 + C=CC(=O)N1CCN(c2nc(=O)n(-c3c(C)ccnc3C(C)C)c3nc(-c4c(O)cccc4F)c(F)cc23)C(C)C1
Resp: Fulfilled

Req: Does this compound meet the criterion viability, T/C < 90%? COc1cc2nccc(Oc3ccc(NC(=O)C4(C(=O)Nc5ccc(F)cc5)CC4)cc3)c2cc1OC + COc1cc2nc(C)nc(NC(C)c3cc(N)cc(C(F)(F)F)c3)c2cc1OC1CCOC1
Resp: Not fulfilled

Req: Does this compound meet the criterion viability, T/C < 90%? CCNC(=O)CC1N=C(c2ccc(Cl)cc2)c2cc(OC)ccc2-n2c(C)nnc21 (stereo not given) + CNCc1ccccc1-c1csc(C(C)Nc2nc(C)nc3cc(OC)c(OC)cc23)c1
Resp: Not fulfilled

Req: Does this compound meet the criterion viability, T/C < 90%? COc1cc(Nc2ncc3c(n2)-c2ccc(Cl)cc2C(c2c(F)cccc2OC)=NC3)ccc1C(=O)O + C=CC(=O)N1CCN(c2nc(=O)n(-c3c(C)ccnc3C(C)C)c3nc(-c4c(O)cccc4F)c(F)cc23)C(C)C1
Resp: Fulfilled
